The following binders are listed with their measured Functional assay IL-8 values.
Target: T1, CD134 expressed on the cell surface of HT1080_OX40 cells (human, UniProt P43489 29-277); further: test concentration or dose not given here
T1 sequence (looked up): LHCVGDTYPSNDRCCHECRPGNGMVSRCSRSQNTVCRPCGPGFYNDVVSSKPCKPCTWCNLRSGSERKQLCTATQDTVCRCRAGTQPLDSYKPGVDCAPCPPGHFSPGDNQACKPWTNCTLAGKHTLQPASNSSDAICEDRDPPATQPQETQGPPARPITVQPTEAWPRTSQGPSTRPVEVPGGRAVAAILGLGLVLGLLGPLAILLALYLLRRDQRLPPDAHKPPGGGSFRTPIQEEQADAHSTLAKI
Test: cell-based or functional assay

binder	Functional assay IL-8 [abs. corr.]
P018.S.11.A.B03 (antibody, V domains shown, V regions on human Ig constant parts; also called AB134_24) VH: QSLEESGGRLVTPGTPLTLTCTVSGFSLSNYAMSWVRQAPGKGLEWIAIISGSGSTNYASWAKGRFTLSKASTTVALKITSPTTEDTATYFCGRGRDDDYAWDLWGQGTLVTVSS VL: DVVMTQTPASVSEPVGGTVTIKCQASQTISNYLAWYQQKPGQPPKLLIYAASTLASGVSSRFRGSGSGTEFSLTISDLESADAATYYCHCTYYDSSYHGFGGGTEVVVK	-0.075
P018.S.13.A.G06 (antibody, V domains shown, V regions on human Ig constant parts; also called AB134_92) VH: QSLEESGGGLVKPGASLTLTCKASGFDLSSYYYMCWVRQAPGKGLEWIGCFYTDDSANTWYATWAKGRFTISKTSSTTVTLQMTSLTAADTATYFCARDASGWYWFNLWGPGTLVTVSS VL: AQVLTQTPSPVSAAVGGTVTISCQSSQSLHDDNALAWYQQKPGQPPKLLIYLASYLASGVPSRFKGSGSGTQFTLTISEVQSDDAATYYCQGAYSGDNNSFGGGTEVVVK	-0.114
